Organism: Rattus norvegicus
assay: Open TG-GATES - Regimen: Single
Type: toxicity, organism-based, Sprague-Dawley
Parameters: regimen Single, gender Male, age 6 weeks
condition label: in vivo, po, 0 mg/kg, 6 h, tissue Blood, route gavage, dose level Control
Exercise: for every item that follows, state its recorded Lym.
Units required after the number.

Consider the following illustrative entries.
1) CC(=O)N1CCN(c2ccc(OCC3COC(Cn4ccnc4)(c4ccc(Cl)cc4Cl)O3)cc2)CC1 (configuration not stated) = 83.2%
2) O=C(O)COc1nn(Cc2ccccc2)c2ccccc12 = 77.2%
3) CC(C)Cc1ccc(C(C)C(=O)O)cc1 (configuration not stated) = 82.2%
4) CC(=O)Nc1ccc2c(c1)Cc1ccccc1-2 = 78.2%
5) CCN(CC)N=O = 79.6%

Parameters: items (list). Returns: Lym for each item.
1. CC[C@@H](CO)NCCN[C@@H](CC)CO
2. CC(CCc1ccccc1)NCC(O)c1ccc(O)c(C(N)=O)c1 (configuration not stated)

Reply text:
["82.6%", "72.8%"]
